Recorded IC50 values for a group of compounds are listed next.
- TARGET_SYSTEM: IGF-IR (Homo sapiens, UniProt P08069)
- Sequence (P08069 31-1367): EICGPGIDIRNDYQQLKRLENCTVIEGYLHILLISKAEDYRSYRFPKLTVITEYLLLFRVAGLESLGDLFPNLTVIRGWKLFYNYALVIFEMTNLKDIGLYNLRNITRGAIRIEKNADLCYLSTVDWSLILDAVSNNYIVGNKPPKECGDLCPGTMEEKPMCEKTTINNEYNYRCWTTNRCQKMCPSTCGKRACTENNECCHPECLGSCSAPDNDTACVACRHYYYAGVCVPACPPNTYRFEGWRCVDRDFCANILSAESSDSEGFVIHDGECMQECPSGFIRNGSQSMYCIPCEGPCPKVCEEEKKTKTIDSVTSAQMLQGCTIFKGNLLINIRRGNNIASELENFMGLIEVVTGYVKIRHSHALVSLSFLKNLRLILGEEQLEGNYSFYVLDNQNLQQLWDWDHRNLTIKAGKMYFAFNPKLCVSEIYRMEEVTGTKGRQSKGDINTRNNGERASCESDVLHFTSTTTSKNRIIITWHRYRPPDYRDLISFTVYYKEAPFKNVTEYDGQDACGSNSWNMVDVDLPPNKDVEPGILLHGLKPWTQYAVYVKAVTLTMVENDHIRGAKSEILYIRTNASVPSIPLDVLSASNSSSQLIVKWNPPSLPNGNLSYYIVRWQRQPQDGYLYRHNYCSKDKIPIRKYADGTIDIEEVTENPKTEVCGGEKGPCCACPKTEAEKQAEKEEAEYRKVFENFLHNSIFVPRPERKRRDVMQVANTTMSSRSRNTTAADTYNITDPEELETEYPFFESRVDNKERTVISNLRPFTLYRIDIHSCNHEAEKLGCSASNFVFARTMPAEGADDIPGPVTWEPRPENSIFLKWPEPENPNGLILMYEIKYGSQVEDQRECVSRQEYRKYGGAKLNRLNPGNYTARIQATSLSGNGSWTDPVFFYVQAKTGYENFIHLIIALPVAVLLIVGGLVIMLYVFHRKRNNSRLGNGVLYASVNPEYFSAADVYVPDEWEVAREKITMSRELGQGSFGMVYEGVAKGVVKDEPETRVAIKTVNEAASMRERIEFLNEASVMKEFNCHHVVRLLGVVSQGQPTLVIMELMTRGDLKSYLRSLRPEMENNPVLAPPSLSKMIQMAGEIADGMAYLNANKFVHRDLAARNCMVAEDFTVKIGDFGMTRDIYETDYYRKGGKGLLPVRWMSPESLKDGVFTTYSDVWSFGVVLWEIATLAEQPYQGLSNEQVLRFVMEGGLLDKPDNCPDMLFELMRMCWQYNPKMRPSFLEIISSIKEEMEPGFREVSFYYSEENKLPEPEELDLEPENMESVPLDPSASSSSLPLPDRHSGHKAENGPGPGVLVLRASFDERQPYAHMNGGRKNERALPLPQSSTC
- ASSAY_NOTES: Cellular Capture ELISA of IGF-I induced autophosphorylation of the IGF-IR
- TEST_PARAMETERS: read-out: IGF-1R IC50
ENDPOINT: IC50 (nM)

>>> result_value("CNS(=O)(=O)c1ccccc1Nc1nc(Nc2cc(N3CCC(N(C)C)C3)ccc2OC)ncc1Cl (stereo not drawn)")
100
>>> result_value("CNS(=O)(=O)c1ccccc1Nc1nc(Nc2ccc(-n3ccnc3)cc2OC)ncc1Br")
210
>>> result_value("CNC(=O)c1ccccc1Nc1nc(Nc2ccc(N3CCN4CCOC[C@H]4C3)cc2OC)ncc1Cl")
260
>>> result_value("COc1cc(N2CCOCC2)ccc1Nc1ncc(Cl)c(Nc2ccccc2S(=O)(=O)NC2CCC2)n1")
50
>>> result_value("CNS(=O)(=O)c1ccccc1Nc1nc(Nc2ccc(N3CCS(=O)(=O)CC3)cc2OC)ncc1Br")
90
>>> result_value("CNC(=O)c1ccccc1Nc1nc(Nc2ccc(OC3CCN(C)CC3)cc2OC)ncc1Cl")
250
>>> result_value("CCOc1cc(N2CCOCC2)ccc1Nc1ncc(Br)c(Nc2ccccc2S(=O)(=O)NC)n1")
140
>>> result_value("COc1cc(N2CCN(C3CCN(C)CC3)CC2)ccc1Nc1ncc(Cl)c(Nc2ccccc2S(=O)(=O)C(C)C)n1")
2570
>>> result_value("CC(C)NS(=O)(=O)c1ccccc1Nc1nc(Nc2ccc(OC3CCN(C)CC3)cc2F)ncc1Cl")
460
>>> result_value("CNS(=O)(=O)c1ccccc1Nc1nc(Nc2ccc(N3CCN(C)CC3)cc2OC)ncc1Br")
90
>>> result_value("COc1cc(N2CCOCC2)ccc1Nc1ncc(Cl)c(Nc2ccccc2S(=O)(=O)NC(C)C)n1")
130
